assay: Systemic pharmacokinetics and total colon tissue distribution after single oral administration in mice; assay type: in vivo, male C57BL/6 mice; conditions: male, C57BL/6, mouse, total colon tissue, oral 10 mg/kg, total colon, 2 h, read-out: Total colon level
observedProperty: concentration at 2 h (ng/g)
Answers are plain numbers, in ng/g.

Ask: // lookup concentration at 2 h for CCc1cc(O)c(F)cc1-c1ccc2c(-c3nc4c([nH]3)CCN(C(=O)c3cnc(N(C)CCN5CCCC5=O)cn3)C4)n[nH]c2c1 [Example 2(k)]
Reply: 5450

---

test: Systemic pharmacokinetics and total colon tissue distribution after single oral administration in mice; type: in vivo, male C57BL/6 mice; conditions: male, C57BL/6, mouse, total colon tissue, oral 10 mg/kg, total colon, read-out: Cmax C (total colon)
observedProperty: Cmax (ng/g)
Answers are plain numbers, in ng/g.

INSERT INTO assay_data (molecule, unitofmeasurement, testvalue) VALUES
  ('CCc1cc(O)c(F)cc1-c1ccc2c(-c3nc4c([nH]3)CCN(C(=O)c3cnc(N5CCCCC5)cn3)C4)n[nH]c2c1 [Reference Compound, reference compound]', 'ng/g', 3230);

Proceed to the following item.
Ask: // lookup Cmax for "CCc1cc(O)c(F)cc1-c1ccc2c(-c3nc4c([nH]3)CCN(C(=O)c3cnc(N(C)CCN5CCCC5=O)cn3)C4)n[nH]c2c1"
Reply: 15200

All figures here come from patent US10851097B2.
